SYSTEM UNDER TEST: platelet ADP receptors (Homo sapiens)
Construct: endogenous in cells
ASSAY TEXT: ARB assay: inhibition of [3H]2-MeS-ADP binding to platelets
TEST SETTINGS: IC50 class, [3H]2-MeS-ADP binding to whole human platelets
For each of the molecules below, state its IC50.

I would be grateful if you could provide IC50 for each of the following entries.
1. CNc1cc2c(cc1F)C(=O)N(c1ccc(C(=O)NS(=O)(=O)c3ccc(Cl)s3)cc1)CO2
2. CNc1cc2c(cc1Cl)C(=O)N(c1ccc(NC(=O)NS(=O)(=O)c3ccc(Cl)s3)cc1)CO2
3. CNc1cc2c(cc1F)C(=O)N(c1ccc(NC(=O)NS(=O)(=O)c3ccc(Cl)s3)cc1OCCN(C)C)CO2
4. CNc1cc2c(cc1F)C(=O)N(c1ccc(NC(=O)NS(=O)(=O)c3ccc(Cl)s3)cc1OC)CO2

["< 0.05 µM", "< 0.05 µM", "> 0.5 µM", "< 0.05 µM"]

* * *

SYSTEM UNDER TEST: platelet ADP receptors (Homo sapiens, UniProt Q9H244)
Construct: endogenous in cells; host or cells: whole apyrase-washed human platelets (outdated from blood banks, or fresh)
Sequence (Q9H244 whole entry): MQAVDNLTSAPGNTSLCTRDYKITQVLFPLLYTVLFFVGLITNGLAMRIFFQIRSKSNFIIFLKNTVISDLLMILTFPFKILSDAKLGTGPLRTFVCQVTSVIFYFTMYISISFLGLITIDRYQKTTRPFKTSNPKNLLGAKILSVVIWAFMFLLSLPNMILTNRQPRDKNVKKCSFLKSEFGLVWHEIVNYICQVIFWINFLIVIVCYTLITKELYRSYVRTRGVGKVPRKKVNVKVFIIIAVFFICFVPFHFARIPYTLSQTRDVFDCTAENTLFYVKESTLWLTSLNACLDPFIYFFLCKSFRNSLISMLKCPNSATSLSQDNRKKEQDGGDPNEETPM
ASSAY TEXT: ARB assay: inhibition of [3H]2-MeS-ADP binding to platelets
TEST SETTINGS: IC50 class, [3H]2-MeS-ADP binding to whole human platelets
RESULT TYPE: IC50

Known IC50 results, listed for orientation:
1. CNc1cc2c(cc1F)C(=O)N(c1ccc(NC(=O)NS(=O)(=O)c3ccc(Cl)s3)nc1)CO2; < 50 nM
2. CNc1cc2c(cc1F)C(=O)N(c1ccc(NC(=O)NS(=O)(=O)c3ccc(Cl)s3)c(C(N)=O)c1)CO2; < 50 nM
3. CNc1cc2c(cc1F)C(=O)N(c1ccc(NC(=O)NS(=O)(=O)c3ccc(Cl)s3)c(OCCOC)c1)CO2; < 50 nM
4. CNc1cc2c(cc1F)C(=O)N(c1ccc(NC(=O)NS(=O)(=O)c3ccc(Cl)s3)c(OC)c1)CO2; < 50 nM
5. CNc1cc2c(cc1F)C(=O)N(c1ccc(NC(=O)NS(=O)(=O)c3ccc(Cl)s3)c(C)c1)CO2; 50 to 500 nM
6. CNc1cc2c(cc1F)C(=O)N(c1ccc(NC(=O)NS(=O)(=O)c3ccc(Cl)s3)c(OCCN(C)C)c1)CO2; 50 to 500 nM
7. CNc1cc2c(cc1F)C(=O)N(c1ccc(NC(=O)NS(=O)(=O)c3ccc(C)s3)nc1)CO2; < 50 nM
8. CNc1cc2c(cc1F)C(=O)N(c1cnc(NC(=O)NS(=O)(=O)c3ccc(Cl)s3)c(C)c1)CO2; < 50 nM

I would be grateful if you could provide IC50 for each of the following entries.
1. CNc1cc2c(cc1F)C(=O)N(c1ccc(NC(=O)NS(=O)(=O)c3ccc(OC)s3)nc1)CO2
2. CCOCCOc1cc(NC(=O)NS(=O)(=O)c2ccc(Cl)s2)ccc1N1COc2cc(NC)c(F)cc2C1=O

50 to 500 nM
> 500 nM

* * *

Test system: ADP-induced human platelet aggregation
ASSAY TEXT: PRP assay: inhibition of ADP-mediated platelet aggregation in vitro
Type: cell-based
TEST SETTINGS: IC50 class
RESULT TYPE: IC50

Known IC50 results, listed for orientation:
1. CNc1cc2c(cc1F)C(=O)N(c1cnc(NC(=O)NS(=O)(=O)c3ccc(Cl)s3)c(C)c1)CO2; < 10 µM
2. CNc1cc2c(cc1F)C(=O)N(c1ccc(NC(=O)NS(=O)(=O)c3ccc(Cl)s3)cc1)CO2; < 10 µM
3. CNc1cc2c(cc1F)C(=O)N(c1ccc(NC(=O)NS(=O)(=O)c3ccc(C)s3)nc1)CO2; < 10 µM
4. CNc1cc2c(cc1Cl)C(=O)N(c1ccc(NC(=O)NS(=O)(=O)c3ccc(Cl)s3)cc1)CO2; > 30 µM

I would be grateful if you could provide IC50 for each of the following entries.
1. CNc1cc2c(cc1F)C(=O)N(c1ccc(NC(=O)NS(=O)(=O)c3ccc(Cl)s3)c(C(N)=O)c1)CO2
2. CNc1cc2c(cc1F)C(=O)N(c1ccc(NC(=O)NS(=O)(=O)c3ccc(Cl)s3)c(OCCOC)c1)CO2
3. CNc1cc2c(cc1F)C(=O)N(c1cc(C)c(NC(=O)NS(=O)(=O)c3ccc(Cl)s3)c(C)c1)CO2
4. CNc1cc2c(cc1F)C(=O)N(c1ccc(C(=O)NS(=O)(=O)c3ccc(Cl)s3)cc1)CO2
5. CNc1cc2c(cc1F)C(=O)N(c1ccc(NC(=O)NS(=O)(=O)c3ccc(Cl)s3)c(OC)c1)CO2
6. CNc1cc2c(cc1F)C(=O)N(c1ccc(NC(=O)NS(=O)(=O)c3ccc(C)s3)cc1)CO2

1: < 10 µM; 2: < 10 µM; 3: < 10 µM; 4: < 10 µM; 5: > 30 µM; 6: 10 to 30 µM
